experiment: Metabolic stability in human liver microsomes (HLM)
condition: human, HLM CLint, n = 1 or average of n = 2-3

{"compound": "N#C[C@@H]1CSCN1C(=O)CNC(=O)c1ccnc2ccc(N3CCC[C@@H]3C3CC3)cc12 (single isomer, unassigned) [Example 199]", "inequalitySymbol": ">", "microsomal CLint (µL/min/mg)": 300}
{"compound": "CN1CCC(F)(c2ccc3nccc(C(=O)NCC(=O)N4CSC[C@H]4C#N)c3c2)CC1 [Example 195]", "inequalitySymbol": "<", "microsomal CLint (µL/min/mg)": 3}
{"compound": "N#C[C@@H]1CSCN1C(=O)CNC(=O)c1ccnc2ccc(N3CC(F)(F)C3)cc12 [Example 23]", "inequalitySymbol": "=", "microsomal CLint (µL/min/mg)": 25}
{"compound": "CC1(F)CCN(c2ccc3nccc(C(=O)NCC(=O)N4CSC[C@H]4C#N)c3c2)CC1 [Example 34]", "inequalitySymbol": "=", "microsomal CLint (µL/min/mg)": 38}
